- System: acute Kidney Injury (AKI) model
- Protocol Summary: Ischemia-reperfusion acute kidney injury (AKI) model in rats
- Assay type: in vivo, male Sprague-Dawley rats
- Particulars: 6 mg/Kg subcutaneous 40 min before AKI, blood 24 h after induction of AKI
Endpoint: BUN level relative to that induced in saline-treated AKI rats (%)

{"columns": ["Molecular String", "Unit Name", "Val"],
 "data": [
  ["N[C@@H](CCC(=O)N1CCC(Nc2nc(NCc3nnc(CCCNCCCNC4CCCCC4)s3)nc3ccccc23)CC1)C(=O)O", "%", 15],
  ["c1ccc2c(NC3CCNCC3)nc(NCc3nnn(CCCNCCCNC4CCCCC4)n3)nc2c1", "%", 25],
  ["Cc1cc(NC2CCN(C(=O)CCNCC(=O)O)CC2)nc(NCc2nnc(CCCNCCCNC3CCCCC3)s2)n1", "%", 11],
  ["Cc1cc(NC2CCN(C(=O)CCNCC(=O)O)CC2)nc(NCc2coc(CCCNCCCNC3CCCCC3)n2)n1", "%", 20],
  ["Cc1cc(NC2CCN(C(=O)CCNCC(=O)O)CC2)nc(NCc2nnn(CCCNCCCNC3CCCCC3)n2)n1", "%", 22]
]}

====

- Target: human CXCR4 (Homo sapiens)
- Construct: expressed in transfected cells; host or cells: HEK293 cells (membranes)
- Sequence (P61073 whole entry): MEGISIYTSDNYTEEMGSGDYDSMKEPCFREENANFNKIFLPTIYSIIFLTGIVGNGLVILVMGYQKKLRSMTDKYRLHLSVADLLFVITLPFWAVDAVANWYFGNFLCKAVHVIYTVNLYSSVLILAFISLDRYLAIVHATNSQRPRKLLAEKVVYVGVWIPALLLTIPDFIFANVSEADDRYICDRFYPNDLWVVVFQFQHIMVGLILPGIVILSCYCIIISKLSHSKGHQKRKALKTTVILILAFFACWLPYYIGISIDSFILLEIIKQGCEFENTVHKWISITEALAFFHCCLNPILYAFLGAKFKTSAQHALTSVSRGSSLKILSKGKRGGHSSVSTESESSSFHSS
- Protocol Summary: Inhibition of 125I-CXCL12 radioligand binding, membranes of human CXCR4-transfected HEK293 cells
- Particulars: 0.16 nM 125I-CXCL12, 60 min at 30 °C, read-out: concentration required to inhibit binding of 125I-CXCL12 to CXCR4 by 50% (IC50)
pIC50: −log10 of the molar value.
Endpoint: pIC50

{"columns": ["Molecular String", "Val"],
 "data": [
  ["CCc1cc(NC2CCN(C(=O)CCNCC(=O)O)CC2)nc(NCc2nnc(CCCNCCCNC3CCCCC3)s2)n1", "6.00 to 7.00"],
  ["CCOC(=O)CNCCC(=O)N1CCC(Nc2cc(C)nc(NCc3cc(CCCNCCCNC4CCCCC4)n[nH]3)n2)CC1", "7.00 to 7.30"],
  ["N[C@@H](CCC(=O)NCCN1CCC(Nc2nc(NCc3coc(CCCNCCCNC4CCCCC4)n3)nc3ccccc23)CC1)C(=O)NCCP(=O)(O)O", "7.00 to 7.30"],
  ["Cc1cc(NC2CCNCC2)nc(NCc2nc(CNCCCNC3CCCCC3)c[nH]2)n1", "7.00 to 7.30"],
  ["c1cc2c(NC3CCNCC3)nc(NCc3nnn(CCCNCCCNC4CCCCC4)n3)nc2s1", "6.00 to 7.00"],
  ["Cc1cc(NC2CCNCC2)nc(NCc2nc(CCCNCCCNC3CCCCC3)co2)n1", "> 7.30"],
  ["CCc1cc(NC2CCNCC2)nc(NCc2nnn(CCCNCCCNC3CCCCC3)n2)n1", "7.00 to 7.30"],
  ["c1ccc2c(NC3CCNCC3)nc(NCc3nc(CCCNCCCNC4CCCCC4)cs3)nc2c1", "> 7.30"],
  ["N[C@@H](CCC(=O)N1CCC(Nc2nc(NCc3noc(CCCNCCCNC4CCCCC4)n3)nc3ccccc23)CC1)C(=O)O", "7.00 to 7.30"],
  ["c1cnc2nc(NCc3nnn(CCCNCCCNC4CCCCC4)n3)nc(NC3CCNCC3)c2c1", "6.00 to 7.00"],
  ["Cc1cnc(NCc2nnn(CCCNCCCNC3CCCCC3)n2)nc1NC1CCN(C(=O)CC[C@H](N)C(=O)O)CC1", "6.00 to 7.00"],
  ["c1ccc2c(NC3CCNCC3)nc(NCc3cc(CCCNCCCNC4CCCCC4)on3)nc2c1", "> 7.30"],
  ["Nc1cc(N2CCNCC2)nc(NCc2nnn(CCCNCCCNC3CCCCC3)n2)n1", "6.00 to 7.00"],
  ["Cc1cc(NC2CCNCC2)nc(NCc2nnn(CCCNCCCNC3CCCCC3)n2)n1", "> 7.30"],
  ["N[C@@H](CCC(=O)N1CCC(Nc2nc(NCCc3cn(CCCCNCCCNC4CCCCC4)cn3)nc3ccccc23)CC1)C(=O)O", "6.00 to 7.00"],
  ["N[C@@H](CCC(=O)NCCN1CCC(Nc2nc(NCc3nc(CCCNCCCNC4CCCCC4)cs3)nc3ccccc23)CC1)C(=O)NCCP(=O)(O)O", "7.00 to 7.30"]
]}

====

Each entry below carries its recorded IC50.
- Target: human CXCR4 (Homo sapiens)

{"columns": ["Molecule", "Target", "IC50"],
 "data": [
  ["N[C@@H](CCC(=O)NCCN1CCC(Nc2nc(NCc3cc(CCCNCCCNC4CCCCC4)on3)nc3ccccc23)CC1)C(=O)NCCP(=O)(O)O", "human CXCR4 (Homo sapiens)", "50 to 100 nM"],
  ["Cc1cc(NC2CCN(C(=O)CCNCC(=O)O)CC2)nc(NCc2nc(CCCNCCCNC3CCCCC3)co2)n1", "human CXCR4 (Homo sapiens)", "< 50 nM"],
  ["N[C@@H](CCC(=O)N1CCC(Nc2nc(NCc3nnc(CCCNCCCNC4CCCCC4)o3)nc3ccccc23)CC1)C(=O)O", "human CXCR4 (Homo sapiens)", "50 to 100 nM"],
  ["N[C@@H](CCC(=O)N1CCC(Nc2nc(NCCc3cn(CCCCNCCCNC4CCCCC4)cn3)nc3ccccc23)CC1)C(=O)OCc1ccccc1", "human CXCR4 (Homo sapiens)", "100 to 1000 nM"],
  ["c1ccc2c(NC3CCNCC3)nc(NCc3nnc(CCCNCCCNC4CCCCC4)o3)nc2c1", "human CXCR4 (Homo sapiens)", "< 50 nM"],
  ["C1=NC(CNc2nc(NC3CCNCC3)c3ccccc3n2)=NC1CNCCCNC1CCCCC1 (centres unmarked)", "human CXCR4 (Homo sapiens)", "50 to 100 nM"],
  ["c1ccc2c(NC3CCNCC3)nc(NCc3cc(CCCNCCCNC4CCCCC4)[nH]n3)nc2c1", "human CXCR4 (Homo sapiens)", "< 50 nM"],
  ["CCc1cc(NC2CCN(C(=O)CC[C@H](N)C(=O)O)CC2)nc(NCc2nnc(CCCNCCCNC3CCCCC3)[nH]2)n1", "human CXCR4 (Homo sapiens)", "50 to 100 nM"],
  ["N[C@@H](CCC(=O)NCCN1CCC(Nc2nc(NCc3nc(CCCNCCCNC4CCCCC4)co3)nc3ccccc23)CC1)C(=O)NCCP(=O)(O)O", "human CXCR4 (Homo sapiens)", "50 to 100 nM"],
  ["N[C@@H](CCC(=O)N1CCC(Nc2nc(NCc3nnc(CCCNCCCNC4CCCCC4)s3)nc3ccccc23)CC1)C(=O)O", "human CXCR4 (Homo sapiens)", "50 to 100 nM"],
  ["O=C(O)CNCCCC(=O)N1CCC(Nc2nc(NCc3nnn(CCCNCCCNC4CCCCC4)n3)nc3ccccc23)CC1", "human CXCR4 (Homo sapiens)", "< 50 nM"],
  ["O=C(O)CNCCC(=O)N1CCC(Nc2nc(NCc3nnn(CCCNCCCNC4CCCCC4)n3)nc3ccccc23)CC1", "human CXCR4 (Homo sapiens)", "50 to 100 nM"],
  ["N[C@@H](CCC(=O)N1CCC(Nc2nc(NCc3nnc(CCCNCCCNC4CCCCC4)[nH]3)nc3ccccc23)CC1)C(=O)O", "human CXCR4 (Homo sapiens)", "50 to 100 nM"],
  ["Cc1cc(NC2CCN(C(=O)CCNCC(=O)O)CC2)nc(NCc2nnn(CCCNCCCNC3CCCCC3)n2)n1", "human CXCR4 (Homo sapiens)", "50 to 100 nM"]
]}

====

- Target: UniProt:P61073

{"columns": ["Compound", "IC50"],
 "data": [
  ["Cc1cc(NC2CCN(C(=O)CCNCC(=O)O)CC2)nc(NCc2ncn(CCCNCCCNC3CCCCC3)n2)n1 [Compound 81]", "100 to 1000 nM"],
  ["N[C@@H](CCC(=O)N1CCC(Nc2nc(NCc3nnn(CCCNCCCNC4CCCCC4)n3)nc3ccccc23)CC1)C(=O)O [Compound 37]", "50 to 100 nM"],
  ["Cc1cc(NC2CCNCC2)nc(NCc2ncn(CCCNCCCNC3CCCCC3)n2)n1 [Compound 71]", "100 to 1000 nM"],
  ["CCc1cc(NC2CCN(C(=O)CC[C@H](N)C(=O)O)CC2)nc(NCc2nnn(CCCNCCCNC3CCCCC3)n2)n1 [Compound 65]", "100 to 1000 nM"],
  ["N[C@@H](CCC(=O)N1CCC(Nc2nc(NCc3coc(CCCNCCCNC4CCCCC4)n3)nc3ccccc23)CC1)C(=O)O [Compound 30]", "< 50 nM"],
  ["CCc1cc(NC2CCN(C(=O)CCCNCC(=O)O)CC2)nc(NCc2nnn(CCCNCCCNC3CCCCC3)n2)n1 [Compound 64]", "100 to 1000 nM"],
  ["Cc1cnc(NCc2nnn(CCCNCCCNC3CCCCC3)n2)nc1NC1CCNCC1 [Compound 75]", "< 50 nM"]
]}

meta.source: patent US10882854B2
